Where these numbers come from: paper PMC10380188

Biological target: porcine epidemic diarrhea virus spike (PEDV S) protein (Porcine epidemic diarrhea virus, UniProt Q91AV1)
Sequence (Q91AV1 26-1383): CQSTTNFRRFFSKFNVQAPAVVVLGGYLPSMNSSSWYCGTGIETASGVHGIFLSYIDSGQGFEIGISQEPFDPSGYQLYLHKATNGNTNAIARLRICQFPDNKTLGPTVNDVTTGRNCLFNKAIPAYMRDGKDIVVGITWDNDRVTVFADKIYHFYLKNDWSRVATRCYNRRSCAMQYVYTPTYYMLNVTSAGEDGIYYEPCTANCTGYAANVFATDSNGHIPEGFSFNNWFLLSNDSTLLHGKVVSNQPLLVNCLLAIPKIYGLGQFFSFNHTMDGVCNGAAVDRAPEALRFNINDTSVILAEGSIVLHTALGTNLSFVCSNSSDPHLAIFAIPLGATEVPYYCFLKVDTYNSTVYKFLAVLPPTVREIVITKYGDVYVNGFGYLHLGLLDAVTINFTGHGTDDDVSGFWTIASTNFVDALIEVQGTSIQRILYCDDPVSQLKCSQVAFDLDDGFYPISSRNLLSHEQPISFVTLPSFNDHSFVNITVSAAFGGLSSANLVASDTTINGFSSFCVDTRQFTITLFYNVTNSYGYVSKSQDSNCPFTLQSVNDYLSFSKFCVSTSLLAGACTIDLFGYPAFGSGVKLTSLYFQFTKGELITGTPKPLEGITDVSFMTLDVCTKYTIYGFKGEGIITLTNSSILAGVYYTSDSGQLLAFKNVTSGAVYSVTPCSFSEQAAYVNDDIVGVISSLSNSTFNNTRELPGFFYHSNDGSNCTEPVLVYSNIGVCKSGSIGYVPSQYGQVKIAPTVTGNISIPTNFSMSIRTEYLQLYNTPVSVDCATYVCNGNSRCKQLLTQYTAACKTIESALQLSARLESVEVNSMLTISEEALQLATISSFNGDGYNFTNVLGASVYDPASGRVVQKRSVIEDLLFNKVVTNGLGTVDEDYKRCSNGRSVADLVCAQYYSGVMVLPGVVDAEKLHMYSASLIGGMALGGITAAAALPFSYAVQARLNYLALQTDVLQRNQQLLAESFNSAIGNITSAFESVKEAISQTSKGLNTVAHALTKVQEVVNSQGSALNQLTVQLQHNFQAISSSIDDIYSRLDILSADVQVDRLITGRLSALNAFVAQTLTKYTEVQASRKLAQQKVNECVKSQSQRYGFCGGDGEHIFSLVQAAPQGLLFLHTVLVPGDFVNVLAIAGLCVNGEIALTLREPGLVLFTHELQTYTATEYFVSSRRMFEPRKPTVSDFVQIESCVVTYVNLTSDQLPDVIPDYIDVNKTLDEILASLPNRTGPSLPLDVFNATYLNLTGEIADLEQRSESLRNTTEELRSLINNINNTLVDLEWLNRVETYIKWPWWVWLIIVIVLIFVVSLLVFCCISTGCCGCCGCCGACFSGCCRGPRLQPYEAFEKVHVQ
Test: SPR affinity assay, KD of six-amino-acid peptides to PEDV S protein
Format: binding
Details: Receptor PEDV S; PEDV peptide dataset used for model performance validation; value repeated on each docking-pose line
OUTCOME_MEASURE: pKd
Note: pKd values are expressed as the negative base-10 logarithm of concentration in M.

Given N=C(N)NCCC[C@H](NC(=O)[C@H](CCCCN)NC(=O)[C@H](CO)NC(=O)[C@H](CCCCN)NC(=O)[C@H](Cc1c[nH]c2ccccc12)NC(=O)[C@@H](N)Cc1ccccc1)C(=O)O , state its recorded pKd.
5.67
